I'd be grateful if you could share measured inhibition for these entries.
assayExplanation: Inhibition of testosterone-5-alpha-reductase at 200 ug/mL
Give bare numbers, in %.

Worked set:
- molecule: "CC(C)=CCc1c(O)cc(O)c2c1O[C@H](c1ccc(O)cc1O)CC2=O"
  numericResult: 89.9
- molecule: "C=C(C)C(CC=C(C)C)Cc1c(O)cc(O)c2c1O[C@H](c1ccccc1O)CC2=O (stereo partly specified)"
  numericResult: 77.3
- molecule: "C=C(C)C(CC=C(C)C)Cc1c(O)cc(OC)c2c1O[C@H](c1ccc(O)cc1)CC2=O (stereo partly specified)"
  numericResult: 84.4
- molecule: "CC(C)=CCc1c(O)cc(O)c2c1O[C@H](c1ccccc1O)CC2=O"
  numericResult: 37.4
- molecule: "C=C(C)C(CC=C(C)C)Cc1c(O)cc(O)c2c1O[C@H](c1ccc(O)cc1O)CC2=O (stereo partly specified)"
  numericResult: 94.2

Please find the next molecule below.
Exam item: Field request: inhibition | item: C=C(C)C(CC=C(C)C)Cc1c(O)cc(O)c2c1O[C@H](c1ccc(O)cc1O)[C@@H](O)C2=O (stereo partly specified)
Marked response: 96.4

----------
assayExplanation: Inhibition of testosterone-5-alpha-reductase at 50 ug/mL
reportedProperty: inhibition (%)
One number for each entry, in %.

Worked set:
- compound: "C=C(C)C(CC=C(C)C)Cc1c(O)cc(OC)c2c1O[C@H](c1ccc(O)cc1)CC2=O (some centres undefined)"
  reportedProperty: "inhibition"
  endpointUnit: "%"
  numericResult: 7.4
- compound: "C=C(C)C(CC=C(C)C)Cc1c(O)cc(O)c2c1O[C@H](c1ccc(O)cc1O)CC2=O (some centres undefined)"
  reportedProperty: "inhibition"
  endpointUnit: "%"
  numericResult: 51.4
- compound: "C=C(C)[C@H](CCC(C)(C)O)Cc1c(O)cc(O)c2c1O[C@H](c1ccccc1O)CC2=O"
  reportedProperty: "inhibition"
  endpointUnit: "%"
  numericResult: 3.2

Please find the next compound below.
Exam item: Field request: inhibition | item: C=C(C)C(CCC(C)(C)O)Cc1c(O)cc(O)c2c1O[C@H](c1ccc(O)cc1O)CC2=O (some centres undefined)
Marked response: 3.5

----------
assayExplanation: Displacement of [3H]DHT from 5-alpha-dihydrotestosterone receptor at 200 ug/mL
reportedProperty: Activity (%)
Answers are plain numbers, in %.

Worked set:
- molecule: "CC(C)=CCC(Cc1c(O)cc(O)c2c1O[C@H](c1ccc(O)cc1O)CC2=O)C(C)CO (some centres undefined)"
  endpointUnit: "%"
  Activity: 92.7
- molecule: "C=C(C)C(CC=C(C)C)Cc1c(O)cc(O)c2c1O[C@H](c1ccc(O)cc1O)CC2=O (some centres undefined)"
  endpointUnit: "%"
  Activity: 90.1
- molecule: "C=C(C)C(CCC(C)(C)O)Cc1c(O)cc(OC)c2c1O[C@H](c1ccc(O)cc1O)CC2=O (some centres undefined)"
  endpointUnit: "%"
  Activity: 65.8

Exam item: Field request: Activity | item: C=C(C)C(CC=C(C)C)Cc1c(O)cc(OC)c2c1O[C@H](c1ccc(O)cc1O)CC2=O (some centres undefined)
Marked response: 88

----------
I'd be grateful if you could share measured Activity for these entries.
assayExplanation: Displacement of [3H]DHT from 5-alpha-dihydrotestosterone receptor at 50 ug/mL

- compound: "C=C(C)C(CC=C(C)C)Cc1c(O)cc(O)c2c1O[C@H](c1ccccc1O)CC2=O (stereo not given in full)"
  result: "60.1%"
- compound: "C=C(C)C(CC=C(C)C)Cc1c(O)cc(OC)c2c1O[C@H](c1ccc(O)cc1OC)CC2=O (stereo not given in full)"
  result: "73.7%"
- compound: "C=C(C)C(CC=C(C)C)Cc1c(O)cc(OC)c2c1O[C@H](c1ccc(O)cc1O)CC2=O (stereo not given in full) [KURARINONE]"
  result: "61.1%"
- compound: "C=C(C)C(CC=C(C)C)Cc1c(O)cc(OC)c2c1O[C@H](c1ccccc1O)CC2=O (stereo not given in full) [KUSHENOL R]"
  result: "27.3%"
- compound: "CC(C)=CCc1c(O)cc(O)c2c1O[C@H](c1ccc(O)cc1O)CC2=O [LEACHIANONE G]"
  result: "74.2%"

Below are some compounds; for each one, tell me its Activity.
1. C=C(C)C(CCC(C)(C)O)Cc1c(O)cc(O)c2c1O[C@H](c1ccc(O)cc1O)CC2=O (stereo not given in full)
2. CC(C)=CCc1c(O)cc(O)c2c1O[C@H](c1ccccc1O)CC2=O [KUSHENOL S]
3. C=C(C)C(CCC(C)(C)O)Cc1c(O)cc(OC)c2c1O[C@H](c1ccc(O)cc1O)CC2=O (stereo not given in full)
4. CC1(C)C=Cc2c(ccc3c2OC[C@@H](c2ccc(O)cc2O)C3)O1
5. C=C(C)C(CC=C(C)C)Cc1c(O)cc(O)c2c1O[C@H](c1ccc(O)cc1O)[C@@H](O)C2=O (stereo not given in full) [KUSHENOL X]

Marked response:
43.9%
37.8%
15.5%
63.2%
68.9%
